These data points were gathered from paper PMC6718736.

// values below are reported Assigned classification CYP3A4
- Test system: CYP3A4
- ASSAY_TEXT: CYP3A4 enzyme induction assay in cryopreserved HepaRG cells (midazolam probe, LC/MS); also: key: 1=Positive=inducer; 0=Negative=non-inducer
- Assay type: in vitro ADME, human
- STATED_CONDITIONS: HepaRG; Lab 1; batch 20
Counter-ions that a name gives are not always drawn.
PROPERTY: Assigned classification CYP3A4

In [3]: df
Out[3]:
                                   molecule  recorded_value
0  O=C1NC(=O)C(c2ccccc2)(c2ccccc2)N1 [Phenytoin sodium]               1
1  COc1ccccc1Oc1c(NS(=O)(=O)c2ccc(C(C)(C)C)cc2)nc(-c2ncccn2)nc1OCCO [Bosentan hydrate]               1
2  NC(=O)N1c2ccccc2C=Cc2ccccc21 [Carbamazepine]               1
3  COCCc1ccc(OCC(O)CNC(C)C)cc1 (stereo not drawn)               0
4  CC(C)NCC(O)c1ccc(NS(C)(=O)=O)cc1 (stereo not drawn) [Sotalol hydrochloride]               0
5  COc1ccc2[nH]c([S+]([O-])Cc3ncc(C)c(OC)c3C)nc2c1 (stereo not drawn)               0

====

// values below are reported Assigned classification CYP2B6
- Test system: CYP2B6
- ASSAY_TEXT: CYP2B6 enzyme induction assay in cryopreserved HepaRG cells (bupropion probe, LC/MS); also: key: 1=Positive=inducer; 0=Negative=non-inducer
- Assay type: in vitro ADME, human
- STATED_CONDITIONS: HepaRG; Lab 2; batch 35
Where a name gives a salt, the structure may show the parent alone.

COMPOUND	TESTED_ON	Assigned classification CYP2B6
COCCc1ccc(OCC(O)CNC(C)C)cc1 (stereo not shown)	CYP2B6	0
CC(C)NCC(O)c1ccc(NS(C)(=O)=O)cc1 (stereo not shown) [Sotalol hydrochloride]	CYP2B6	0
O=C1NC(=O)C(c2ccccc2)(c2ccccc2)N1 [Phenytoin sodium]	CYP2B6	1
COc1ccc2[nH]c([S+]([O-])Cc3ncc(C)c(OC)c3C)nc2c1 (stereo not shown)	CYP2B6	0
COc1ccccc1Oc1c(NS(=O)(=O)c2ccc(C(C)(C)C)cc2)nc(-c2ncccn2)nc1OCCO [Bosentan hydrate]	CYP2B6	0
NC(=O)N1c2ccccc2C=Cc2ccccc21 [Carbamazepine]	CYP2B6	1
CO[C@H]1/C=C/O[C@@]2(C)Oc3c(C)c(O)c4c(O)c(c(/C=N/N5CCN(C)CC5)c(O)c4c3C2=O)NC(=O)/C(C)=C\C=C\[C@H](C)[C@H](O)[C@@H](C)[C@@H](O)[C@@H](C)[C@H](OC(C)=O)[C@@H]1C	CYP2B6	0

====

// values below are reported HepaRG medium stability
- ASSAY_TEXT: Solubility by visual inspection (DMSO stock solution and assay medium)
- Assay type: physicochemical
- STATED_CONDITIONS: Lab 3, visual observation, assay medium
PROPERTY: HepaRG medium stability (µg/mL)

MOLECULE	RECORDED_VALUE
CC1(C)S[C@@H]2[C@H](NC(=O)Cc3ccccc3)C(=O)N2[C@H]1C(=O)O [Penicillin G sodium]	40
CO[C@H]1/C=C/O[C@@]2(C)Oc3c(C)c(O)c4c(c3C2=O)C2=NC3(CCN(CC(C)C)CC3)NC2=C(NC(=O)/C(C)=C\C=C\[C@H](C)[C@H](O)[C@@H](C)[C@@H](O)[C@@H](C)[C@H](OC(C)=O)[C@@H]1C)C4=O [Rifabutin]	40
O=C1Nc2ccc(Cl)cc2[C@@](C#CC2CC2)(C(F)(F)F)O1 [Efavirenz]	40
OCc1c[nH]c2ccccc12 [Indole-3-carbinol]	10
O=C1NC(=O)C(c2ccccc2)(c2ccccc2)N1 [Phenytoin sodium]	40

====

- Tested on: CYP1A2
- ASSAY_TEXT: CYP1A2 enzyme induction assay in cryopreserved primary human hepatocytes (PHH);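 also: code 1 means positive inducer and 0 means non-inducer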
- Format: in vitro ADME
- STATED_CONDITIONS: PHH; Lab 1; batch 0 6 A

COMPOUND	Assigned classification CYP1A2
O=C1Nc2ccc(Cl)cc2[C@@](C#CC2CC2)(C(F)(F)F)O1	0
CO[C@H]1/C=C/O[C@@]2(C)Oc3c(C)c(O)c4c(O)c(c(/C=N/N5CCN(C)CC5)c(O)c4c3C2=O)NC(=O)/C(C)=C\C=C\[C@H](C)[C@H](O)[C@@H](C)[C@@H](O)[C@@H](C)[C@H](OC(C)=O)[C@@H]1C	0
O=C1NC(=O)C(c2ccccc2)(c2ccccc2)N1 [Phenytoin sodium]	1

====

// values below are reported Assigned classification CYP1A2
- Test system: CYP1A2
- ASSAY_TEXT: CYP1A2 enzyme induction assay in cryopreserved primary human hepatocytes (PHH);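 also: code 1 means positive inducer and 0 means non-inducer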
- Format: in vitro ADME
- STATED_CONDITIONS: PHH; Lab 1; batch 0 6 A
Where a name gives a salt, the structure may show the parent alone.

MOLECULE	TESTED_ON	Assigned classification CYP1A2
CC(C)NCC(O)c1ccc(NS(C)(=O)=O)cc1 (stereo not drawn) [Sotalol hydrochloride]	CYP1A2	0
COCCc1ccc(OCC(O)CNC(C)C)cc1 (stereo not drawn) [Metoprolol]	CYP1A2	0
CO[C@H]1/C=C/O[C@@]2(C)Oc3c(C)c(O)c4c(c3C2=O)C2=NC3(CCN(CC(C)C)CC3)NC2=C(NC(=O)/C(C)=C\C=C\[C@H](C)[C@H](O)[C@@H](C)[C@@H](O)[C@@H](C)[C@H](OC(C)=O)[C@@H]1C)C4=O [Rifabutin]	CYP1A2	1
COc1ccc2[nH]c([S+]([O-])Cc3ncc(C)c(OC)c3C)nc2c1 (stereo not drawn) [Omeprazole]	CYP1A2	1
COc1ccccc1Oc1c(NS(=O)(=O)c2ccc(C(C)(C)C)cc2)nc(-c2ncccn2)nc1OCCO [Bosentan hydrate]	CYP1A2	0
NC(=O)N1c2ccccc2C=Cc2ccccc21 [Carbamazepine]	CYP1A2	0

====

- System: CYP1A2
- ASSAY_TEXT: CYP1A2 enzyme induction assay in cryopreserved primary human hepatocytes (PHH);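 also: code 1 means positive inducer and 0 means non-inducer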
- Assay type: in vitro ADME
- STATED_CONDITIONS: PHH; Lab 3; batch 0 6 A
Structures can show the parent of a compound that is named as a salt.

MOLECULE	Assigned classification CYP1A2
NC(=O)N1c2ccccc2C=Cc2ccccc21 [Carbamazepine]	1
COc1ccc2[nH]c([S+]([O-])Cc3ncc(C)c(OC)c3C)nc2c1 (stereo not drawn)	1
CO[C@H]1/C=C/O[C@@]2(C)Oc3c(C)c(O)c4c(c3C2=O)C2=NC3(CCN(CC(C)C)CC3)NC2=C(NC(=O)/C(C)=C\C=C\[C@H](C)[C@H](O)[C@@H](C)[C@@H](O)[C@@H](C)[C@H](OC(C)=O)[C@@H]1C)C4=O	1
CO[C@H]1/C=C/O[C@@]2(C)Oc3c(C)c(O)c4c(O)c(c(/C=N/N5CCN(C)CC5)c(O)c4c3C2=O)NC(=O)/C(C)=C\C=C\[C@H](C)[C@H](O)[C@@H](C)[C@@H](O)[C@@H](C)[C@H](OC(C)=O)[C@@H]1C	1
O=C1NC(=O)C(c2ccccc2)(c2ccccc2)N1 [Phenytoin sodium]	1
O=C1Nc2ccc(Cl)cc2[C@@](C#CC2CC2)(C(F)(F)F)O1	0
COc1ccccc1Oc1c(NS(=O)(=O)c2ccc(C(C)(C)C)cc2)nc(-c2ncccn2)nc1OCCO [Bosentan hydrate]	1
COCCc1ccc(OCC(O)CNC(C)C)cc1 (stereo not drawn)	1
CC(C)NCC(O)c1ccc(NS(C)(=O)=O)cc1 (stereo not drawn) [Sotalol hydrochloride]	0

====

// values below are reported Assigned classification CYP3A4
- System: CYP3A4
- ASSAY_TEXT: CYP3A4 enzyme induction assay in cryopreserved primary human hepatocytes (PHH)
- STATED_CONDITIONS: PHH; Lab 3; batch 4 0 8
Where a name gives a salt, the structure may show the parent alone.
PROPERTY: Assigned classification CYP3A4

In [3]: df
Out[3]:
                                   molecule  tested_on  recorded_value
0  COc1ccc2[nH]c([S+]([O-])Cc3ncc(C)c(OC)c3C)nc2c1 (stereo not shown)     CYP3A4               0
1  O=C1NC(=O)C(c2ccccc2)(c2ccccc2)N1 [Phenytoin sodium]     CYP3A4               1
2  COCCc1ccc(OCC(O)CNC(C)C)cc1 (stereo not shown)     CYP3A4               0
3  NC(=O)N1c2ccccc2C=Cc2ccccc21 [Carbamazepine]     CYP3A4               1
4  O=C1Nc2ccc(Cl)cc2[C@@](C#CC2CC2)(C(F)(F)F)O1     CYP3A4               1
5  CC(C)NCC(O)c1ccc(NS(C)(=O)=O)cc1 (stereo not shown) [Sotalol hydrochloride]     CYP3A4               0
6  COc1ccccc1Oc1c(NS(=O)(=O)c2ccc(C(C)(C)C)cc2)nc(-c2ncccn2)nc1OCCO [Bosentan hydrate]     CYP3A4               1
